Source of measurements: PubChem BioAssay (Tox21)

biological target: Thyrotropin receptor (Homo sapiens); test: qHTS assay to identify small molecule agonists of the thyroid stimulating hormone receptor (TSHR) signaling pathway (AID 1224843); conditions: TSHR-HEK293 cells, cAMP HTRF, agonist mode, 30 min; series mostly up to 92.4 µM; further: nearly all actives have a fitted effect of over 45% in size
Inconclusive results are not listed. Active and inactive are the calls of the source. The call rests on the fitted dose curve.
Possible outcomes: yes (active), no (inactive)

# COMPOUND, CLASS
data = [
    ("CO[Si](CCCNCCNCCN)(OC)OC", "no"),
    ("CN(C)CCCN1c2ccccc2Sc2ccc(C(F)(F)F)cc21", "no"),
    ("O=C(O)Cc1ccc(OCCNC[C@H](O)c2ccccc2)cc1", "no"),
    ("CCCCCCCCCCCCN(CCO)CCO", "no"),
    ("CC1=C(/C=C/C(C)=C/C=C/C(C)=C\\C=O)C(C)(C)CCC1", "yes"),
    ("O=C(O)CCCCCCC(=O)O", "no"),
    ("COc1cccc(CCc2ccccc2OCC(CN(C)C)OC(=O)CCC(=O)O)c1 (stereo not given)", "no"),
    ("COc1ccc(-n2nc(CCC(=O)N(C)O)cc2-c2ccc(Cl)cc2)cc1", "no"),
    ("CN(C)c1ccc(N=NS(=O)(=O)O)cc1", "no"),
    ("CC(C)c1ccc(O)c(C(C)C)c1", "no"),
    ("CCN(CC)CCOc1ccc(C(O)(Cc2ccc(Cl)cc2)c2ccc(C)cc2)cc1 (stereo not given)", "no"),
    ("CCc1cccc(CC)c1NC(=O)C(=O)O", "no"),
    ("CC1(C)COCN1", "no"),
    ("CC(=O)Oc1ccc(C2(c3ccc(OC(C)=O)cc3)Oc3ccccc3NC2=O)cc1", "no"),
    ("CCC(C)(C)c1cc(O)c(C(C)(C)CC)cc1O", "no"),
    ("C/C=C/C(=O)C1=C(C)CCCC1(C)C", "no"),
    ("Cc1cccc(C)n1", "no"),
    ("CS(C)(=O)=O", "no"),
    ("CC(C)=CCCC(C)O (stereo not given)", "no"),
    ("CC1(C)C(=O)N(Br)C(=O)N1Br", "no"),
    ("Cc1cccc(N(C)C)c1", "no"),
    ("CN1CCN(C2Cc3ccccc3Sc3ccc(Cl)cc32)CC1 (stereo not given)", "no"),
    ("CCCCCCCCC(C)=O", "no"),
    ("SCCCCCCCCS", "no"),
    ("CCCCCCCCCCCCCCNCCO", "no"),
    ("Oc1ccc(-c2ccc(O)cc2)cc1", "no"),
    ("Oc1c(Br)cc(Br)c2cccnc12", "no"),
    ("Cc1ccc(O)cn1", "no"),
    ("CC(C)CCOCCC(C)C", "no"),
    ("CNC(=S)NN", "no"),
]
